Tested system: human GIP receptor (hGIPR) (Homo sapiens)
Construct: expressed in transfected cells
Sequence (P48546 22-466): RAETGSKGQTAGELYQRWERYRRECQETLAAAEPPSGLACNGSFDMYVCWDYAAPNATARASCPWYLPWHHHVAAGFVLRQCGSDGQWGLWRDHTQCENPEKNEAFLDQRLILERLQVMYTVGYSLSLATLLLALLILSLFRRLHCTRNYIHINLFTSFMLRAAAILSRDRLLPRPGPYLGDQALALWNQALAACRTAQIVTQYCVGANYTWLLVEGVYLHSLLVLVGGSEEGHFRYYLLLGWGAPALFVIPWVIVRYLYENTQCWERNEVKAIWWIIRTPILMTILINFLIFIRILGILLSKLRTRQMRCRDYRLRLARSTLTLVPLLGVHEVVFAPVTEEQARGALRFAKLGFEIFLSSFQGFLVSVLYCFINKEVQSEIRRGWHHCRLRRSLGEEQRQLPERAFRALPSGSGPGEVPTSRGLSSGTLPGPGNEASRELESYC
Test: GIP receptor assay, method A (CRE-luciferase reporter, BHK cells)
Type: cell-based
Setup conditions: method A, absence of HSA; read-out: hGIPR Potency, no HSA, EC50
Numbered stars: 1 amine (or outer) side, 2 acyl side, 3 side chain; on linkers, the order of the positions; unused ones are H or OH. Square brackets hold non-standard residues; d marks the D form. Side chains are listed from the residue outwards. * marks the point of attachment. C18 diacid = O=C(O)CCCCCCCCCCCCCCCCC(=O)*; C16 diacid = O=C(O)CCCCCCCCCCCCCCC(=O)*; γGlu = O=C(O)[C@H](CCC(=O)[*:2])N[*:1]; AEEA = NCCOCCOCC(=O)O; Aib = CC(C)(N)C(=O)O
Recorded endpoint: pEC50
Conceptually, pEC50 converts a concentration in mol/L into minus its log10.

{"Substance": "H[Aib]HGTFTSDYSILLEEQAAREFIEWLLAGGPSK([AEEA-AEEA-γGlu-C18 diacid])GAPPPSGGGEASELSTAALGRLSAELHRLATLPRTETGSGSP-NH2 [Compound 30]", "Tested system": "human GIP receptor (hGIPR) (Homo sapiens)", "Number": 11.17}
{"Substance": "H[Aib]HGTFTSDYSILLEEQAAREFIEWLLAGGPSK([AEEA-AEEA-γGlu-C18 diacid])GALAQTLGTNEASELSTAALGRLSAELHRLATLPRTETGSGSP-NH2 [Compound 44]", "Tested system": "human GIP receptor (hGIPR) (Homo sapiens)", "Number": 11.20}
{"Substance": "Y[Aib]EGTFTSDYSILLEEQAAREFIEWLLAGGPSK([AEEA-AEEA-γGlu-C16 diacid])GAPPPSGGGEASELSTAALGRLSAELHELATLPRTETGSGSP-NH2 [compound 10]", "Tested system": "human GIP receptor (hGIPR) (Homo sapiens)", "Number": 11.68}
{"Substance": "Y[Aib]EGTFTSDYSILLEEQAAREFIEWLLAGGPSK([AEEA-AEEA-γGlu-C18 diacid])GALAQTLAQTLASELSTAALGRLSAELHELATLPRTETGSGSP-NH2 [Compound 21]", "Tested system": "human GIP receptor (hGIPR) (Homo sapiens)", "Number": 11.06}

Please examine the following record next.
Fill in the blank: the reported pEC50 of Y[Aib]EGTFTSDYSILLEEQAAREFIEWLLAGGPSGGEASHLSTAQTQRLSAELHK([AEEA-AEEA-γGlu-C18 diacid])LATLPRTETGSGSP-NH2 [Compound 74] is ____.
11.60
